System: Mycobacterium tuberculosis
Assay: Cornell M. t heat shock assay; further: in the data most compounds retested in dose-response had high values
Format: functional, organism-based
Parameters: dose or concentration left out as unconfirmed
Among all 69,000 compounds or so, about 950 (1.4%) showed an effect of 50% or more. Many of the other results were omitted from the sample, so strong results are more common in it than they were.
MEASURED_PARAMETER: Percent Effect (%)
Give bare numbers, in %.

Sample answers from the record:
# COMPOUND, TESTED_TARGET, Percent Effect (%)
rows = [
    ("CCc1cnc(N)nc1NC(C)c1cnn(C)c1 (stereo unspecified)", "Mycobacterium tuberculosis", -5.78),
    ("Cc1nc(NCc2cccnc2)c2c(n1)c(C)nn2C", "Mycobacterium tuberculosis", 15.35),
]

Hi team, please reply with Percent Effect for each item in this list.
1. C=C/C=c1\c(=C/C)oc2c(NCc3ccccc3)nc(CC)nc12
2. CCc1cnc(N)nc1N[C@@H](C)c1ncccc1C

Response:
1: 75.04; 2: -10.37

Each of the following entries comes with a recorded value; kindly state Percent Effect for each.
1. Cc1ccc(C)c(CSc2nnc(C(N)Cc3ccccc3)o2)c1.Cl (stereo unspecified)
2. O=C(O)C(F)(F)F.O=C1CC[C@]2(CC[C@@H](NCc3ccsc3)CC2)N1Cc1ccccc1
3. COc1ccc(-c2nnc(CNCCn3cccn3)o2)cc1
4. CS(=O)(=O)N1CCC(Nc2ccc(C#N)c(C(F)(F)F)c2)CC1

Response:
1: -13.89; 2: -7.125; 3: -11.96; 4: -3.037

Report Percent Effect for every entry below.
1. O=C(NC[C@]12COC[C@H]1CN(Cc1ccco1)C2)c1ccccc1.O=C(O)C(F)(F)F
2. Cc1cccc(CN2C[C@H](OCc3csc(C)n3)[C@H]3COC[C@H]32)n1.O=C(O)C(F)(F)F.O=C(O)C(F)(F)F

Response:
-18.08
-14.33
